- assay.protocol: Cytotoxic concentration (CC50) test, Alamar Blue, Huh-7
- Type: cell-based
- experimental.conditions: human, Huh-7 cells; Huh-7, Alamar Blue
assay.endpoint: CC50 at 48 h (µM)
Could you give me the number in µM? Just the number is fine.

# compound, CC50 at 48 h / µM
measured = [
    ("COc1c(Br)c(O)c2c(c1Br)OC(c1ccccc1)CC2=O (centres unmarked) [TH002, 6,8-dibromo-5-hydroxy-7-methoxyflavanone]", 76.4),
]

Please examine the following record next.
Noted for O=C1CC(c2ccccc2)Oc2c(Br)c(O)c(Br)c(O)c21 (centres unmarked) [TH011, 6,8-dibromo-5,7-dihydroxyflavanone] : its CC50 at 48 h reads 48.3

* * *

- assay.protocol: Cytotoxic concentration (CC50) test, MTS, THP-1
- Type: cell-based
- experimental.conditions: human, THP-1 cells, THP-1, 48 h
assay.endpoint: CC50 at 48 h (µM)
Your answer is read as µM, so omit the unit and give the number.

COc1c(Br)c(O)c2c(c1Br)OC(c1ccccc1)CC2=O (centres unmarked) [TH002, 6,8-dibromo-5-hydroxy-7-methoxyflavanone] has a reported CC50 at 48 h of 51.8

* * *

Reported CC50 at 48 h values are given for each entry in this list.
- assay.protocol: Cytotoxic concentration (CC50) test, MTS, LLC/MK2
- Type: cell-based, Macaca mulatta (rhesus monkey)
- experimental.conditions: rhesus monkey, LLC/MK2 cells
Your answer is read as µM, so omit the unit and give the number.

# molecule, CC50 at 48 h / µM
data = [
    ("O=C1CC(c2ccccc2)Oc2c(Br)c(O)c(Br)c(O)c21 (centres unmarked) [TH011, 6,8-dibromo-5,7-dihydroxyflavanone]", 67.2),
]

Pending molecule:
Form field CC50 at 48 h, entry COc1cc(O)c2c(c1)O[C@H](c1ccccc1)CC2=O : 78.8

* * *

- assay.protocol: Cytotoxic concentration (CC50) test, MTS, HepG2
- Assay type: cell-based
- experimental.conditions: human, HepG2 cells, HepG2, 48 h
assay.endpoint: CC50 at 48 h (µM)
Please state the figure in µM; there is no need to write the unit.

// COc1c(Br)c(O)c2c(c1Br)OC(c1ccccc1)CC2=O (centres unmarked) [TH002, 6,8-dibromo-5-hydroxy-7-methoxyflavanone] : CC50 at 48 h value = 49.9

* * *

- Test system: dengue virus serotype 2 (DENV2), New Guinea C strain
- assay.protocol: DENV2 NGC effective concentration (EC50) test in LLC/MK2 cells, plaque titration
- Format: cell-based
- experimental.conditions: Dengue virus; DENV2 NGC in LLC/MK2 cells, MOI 0.1, 72 h, plaque titration
assay.endpoint: pEC50
Reminder that pEC50 means the negative base-10 logarithm of the concentration expressed in mol/L.

# compound, pEC50
rows = [
    ("COc1cc(O)c2c(c1)O[C@H](c1ccccc1)CC2=O [TH019, pinostrobin]", 4.97),
    ("O=C1CC(c2ccccc2)Oc2c(Br)c(O)c(Br)c(O)c21 (centres unmarked) [TH011, 6,8-dibromo-5,7-dihydroxyflavanone]", 5.69),
    ("COc1cc2c(c(O)c1I)C(=O)CC(c1ccccc1)O2 (centres unmarked) [TH018, 6-iodo-5-hydroxy-7-methoxyflavanone]", 5.39),
]

Record COc1c(Br)c(O)c2c(c1Br)OC(c1ccccc1)CC2=O (centres unmarked) [TH002, 6,8-dibromo-5-hydroxy-7-methoxyflavanone] , field pEC50: 5.23

// sample COc1c(I)c(O)c2c(c1I)OC(c1ccccc1)CC2=O (centres unmarked) [TH012, 6,8-diiodo-5-hydroxy-7-methoxyflavanone] , its pEC50 was 5.55

* * *

- Test system: dengue virus serotype 2 (DENV2), New Guinea C strain
- assay.protocol: DENV2 NGC effective concentration (EC50) test in LLC/MK2 cells, plaque titration
- Assay type: cell-based
- experimental.conditions: LLC/MK2 CC50 / DENV2 NGC EC50
assay.endpoint: SI NGC (CC50/EC50)

Solved entries (count: 5):
# compound, tested.target, SI NGC (CC50/EC50)
measured = [
    ("COc1c(Br)c(O)c2c(c1Br)OC(c1ccccc1)CC2=O (stereo not drawn) [TH002, 6,8-dibromo-5-hydroxy-7-methoxyflavanone]", "dengue virus serotype 2 (DENV2), New Guinea C strain", ">17.0745,"),
    ("COc1c(I)c(O)c2c(c1I)OC(c1ccccc1)CC2=O (stereo not drawn) [TH012, 6,8-diiodo-5-hydroxy-7-methoxyflavanone]", "dengue virus serotype 2 (DENV2), New Guinea C strain", ">3.5714"),
    ("O=C1CC(c2ccccc2)Oc2cc(O)cc(O)c21 (stereo not drawn) [TH022, 5,7-dihydroxyflavanone]", "dengue virus serotype 2 (DENV2), New Guinea C strain", ">6.47"),
    ("O=C1CC(c2ccccc2)Oc2c(Br)c(O)c(Br)c(O)c21 (stereo not drawn) [TH011, 6,8-dibromo-5,7-dihydroxyflavanone]", "dengue virus serotype 2 (DENV2), New Guinea C strain", 32.5621),
    ("COc1cc2c(c(O)c1I)C(=O)CC(c1ccccc1)O2 (stereo not drawn) [TH018, 6-iodo-5-hydroxy-7-methoxyflavanone]", "dengue virus serotype 2 (DENV2), New Guinea C strain", ">6.0945"),
]

Continue with the compound presented below.
Recorded SI NGC (CC50/EC50) (compound COc1cc(O)c2c(c1)O[C@H](c1ccccc1)CC2=O ): 7.3242

* * *

- assay.protocol: Cytotoxic concentration (CC50) test, MTS, LLC/MK2
- Assay type: cell-based, Macaca mulatta (rhesus monkey)
- experimental.conditions: rhesus monkey, LLC/MK2 cells
# Lookup of reported CC50 at 48 h keyed by entry

CC50 at 48 h recorded for this compound, COc1cc2c(c(O)c1I)C(=O)CC(c1ccccc1)O2 (stereo not drawn) [TH018, 6-iodo-5-hydroxy-7-methoxyflavanone] , is > 25 µM

Value of measured CC50 at 48 h for the entry COc1c(Br)c(O)c2c(c1Br)OC(c1ccccc1)CC2=O (stereo not drawn) [TH002, 6,8-dibromo-5-hydroxy-7-methoxyflavanone] : > 100 µM

Record COc1c(I)c(O)c2c(c1I)OC(c1ccccc1)CC2=O (stereo not drawn) [TH012, 6,8-diiodo-5-hydroxy-7-methoxyflavanone] , field CC50 at 48 h: > 10 µM
